test system: primary human lung fibroblasts; experiment: TGFβ-induced fibroblasts to myofibroblasts transition (FMT), α-SMA immunocytochemistry; assay type: cell-based; conditions: Fibroblast, α-SMA-positive cells, 48 h, NC: not converged
pIC50: −log10 of the molar value.
measurement_name: pIC50

smiles_structure=O=C(O)CCCc1cc2cc(Cl)ccc2n1S(=O)(=O)c1ccc2ncsc2c1 reading=4.97

###

Target: human PPARα (Homo sapiens)
Sequence (Q07869 200-468 limits assumed): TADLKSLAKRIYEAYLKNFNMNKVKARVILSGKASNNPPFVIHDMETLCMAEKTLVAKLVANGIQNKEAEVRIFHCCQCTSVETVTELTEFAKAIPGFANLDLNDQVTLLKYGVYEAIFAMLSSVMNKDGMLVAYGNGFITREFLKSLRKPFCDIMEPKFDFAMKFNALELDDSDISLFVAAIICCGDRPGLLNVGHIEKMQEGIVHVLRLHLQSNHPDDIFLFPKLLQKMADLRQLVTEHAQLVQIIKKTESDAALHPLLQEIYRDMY
Assay: Transient transactivation assay, Cos-7 cells, chimeric PPARα-Gal4, luciferase reporter
Settings: Gal4 chimera, mean of 6 experiments
pEC50: −log10 of the molar value.
measurement_name: pEC50

molecule="O=C(O)CCCc1cc2cc(Cl)ccc2n1S(=O)(=O)c1ccc2ncsc2c1 [compound A]" reading=6.04
